pIC50 for assorted molecules
Target: IL-17A/A (Homo sapiens)
Sequence (Q16552 24-155): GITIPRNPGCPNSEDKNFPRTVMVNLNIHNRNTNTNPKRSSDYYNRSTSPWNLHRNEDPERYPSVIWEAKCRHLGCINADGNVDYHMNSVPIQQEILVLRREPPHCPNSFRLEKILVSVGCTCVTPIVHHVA
Assay: IL-17A/A HEK-Blue cell assay (SEAP reporter)
Conditions: HEK-Blue IL-17A reporter cells, IL17A/A 5 ng/mL, 20 hours, SEAP read at A630; read-out: HEK-Blue IL17AA (IC50 for IL-17A/A inhibition)
Method: The HEK-Blue IL-17A reporter cell line (Fisher #NC 1408637) was used for cell-based IL-17A/A inhibition assays. Cells were grown and prepared for assays according to the manufacturer's instructions. […] Media from the cells is then added to a development reagent (Quanti-Blue Substrate, Fisher #NC971 1613), and read at A630. […]
pIC50: −log10 of the molar value.

Recorded pIC50, per entry:
CCn1nccc1C(=O)N[C@H](c1cn2nc(CC3C[C@@H](C(F)(F)F)CNC3=O)c(N3CCOCC3)nc2n1)[C@H]1CCCC(F)(F)C1 (single isomer, unassigned) [Compound 91]    > 7.00
CCn1nccc1C(=O)N[C@H](c1cn2nc(C[C@H]3C[C@@H](C(F)(F)F)CNC3=O)c(N3CCO[C@H](C)C3)nc2n1)C1CCC(F)(F)CC1    > 7.00

API: the following record is the query input.
# query: pIC50 of entry CCn1nccc1C(=O)N[C@H](c1cn2nc(C[C@H]3C[C@@H](C(F)(F)F)CNC3=O)c([C@H]3CCOC3)nc2n1)C(C1CC1)C1CC1 (single isomer, unassigned)
> 7.00

----------
Biological target: IL-17A/A (Homo sapiens, UniProt Q16552)
Assay: IL-17A/A HEK-Blue cell assay (SEAP reporter)
Conditions: HEK-Blue IL-17A reporter cells, IL17A/A 5 ng/mL, 20 hours, SEAP read at A630; read-out: HEK-Blue IL17AA (IC50 for IL-17A/A inhibition)
pIC50: −log10 of the molar value.
pIC50 for assorted compounds

CCn1nccc1C(=O)N[C@H](c1cn2nc(C[C@H]3C[C@@H](C(F)(F)F)CNC3=O)c(C3CCCOC3)nc2n1)[C@@H]1CCCC(F)(F)C1 (single isomer, unassigned) [Compound 71]    > 7.00

Give pIC50 (IL-17A/A (Homo sapiens, UniProt Q16552)) of the following compound: CCn1nccc1C(=O)N[C@H](c1cn2nc(C[C@H]3C[C@@H](C(F)(F)F)CNC3=O)c(C3CCCCN3CCOC)nc2n1)C1CCC(F)(F)CC1 (some centres unmarked)
6.00 to 7.00

And for CCn1nccc1C(=O)N[C@H](c1cn2nc(C[C@H]3C[C@@H](C(F)(F)F)CNC3=O)c([C@@H]3CCC(C)(C)OC3)nc2n1)C1CCC(F)(F)CC1 (single isomer, unassigned) ?
> 7.00

And for CCn1nccc1C(=O)N[C@H](c1cn2nc(C[C@H]3C[C@@H](C(F)(F)F)CNC3=O)c(N3CCOC(COC)C3)nc2n1)C1CCC(F)(F)CC1 (some centres unmarked) ?
> 7.00

And for CN(C)CCn1nccc1C(=O)N[C@H](c1cn2nc(C[C@H]3C[C@@H](C(F)(F)F)CNC3=O)c(C3CCOCC3)nc2n1)C1CCC(F)(F)CC1 ?
6.00 to 7.00
